studyTarget: BRN2 (Homo sapiens)
Sequence (P20265 1-443): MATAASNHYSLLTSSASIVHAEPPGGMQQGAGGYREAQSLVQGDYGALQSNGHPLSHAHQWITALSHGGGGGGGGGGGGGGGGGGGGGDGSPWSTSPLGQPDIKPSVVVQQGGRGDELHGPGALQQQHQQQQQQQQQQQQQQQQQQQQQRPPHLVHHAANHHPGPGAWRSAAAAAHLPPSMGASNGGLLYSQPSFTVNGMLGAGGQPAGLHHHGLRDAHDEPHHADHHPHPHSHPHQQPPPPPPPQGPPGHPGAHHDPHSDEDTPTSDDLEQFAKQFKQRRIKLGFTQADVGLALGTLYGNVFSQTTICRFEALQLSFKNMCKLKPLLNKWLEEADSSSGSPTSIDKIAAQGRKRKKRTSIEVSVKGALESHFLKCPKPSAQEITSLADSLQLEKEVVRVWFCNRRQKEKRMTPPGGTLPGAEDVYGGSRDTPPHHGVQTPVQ
test: cell-based
protocolConditions: read-out: % BRN2 Inhibition (10 μM), 10 μM compound, 24 hours, 42D^ENZR cells stably expressing BRN2-luciferase reporter; negative = activation
property: inhibition at 10 µM (%)
Just the number please, in %, no unit attached.

Consider the molecule shown here: c1coc(-c2ncc(-c3cc4ccccc4o3)s2)c1 What is its recorded inhibition at 10 µM?
80

Request the reported inhibition at 10 µM associated with NS(=O)(=O)c1ccc2nc(-c3csc(-c4ccccc4F)n3)[nH]c2c1
-69.6

I would be grateful if you could share the reported inhibition at 10 µM for Cn1c(-c2ccc(-c3ccc(C#N)cc3)o2)nc2ccccc21 .
-62

Could you share which inhibition at 10 µM value was measured for Cn1c(-c2ccc(-c3ccccc3)o2)nc2ccc(S(N)(=O)=O)cc21 ?
39.8

----------
studyTarget: BRN2 (Homo sapiens, UniProt P20265)
Sequence (P20265 1-443): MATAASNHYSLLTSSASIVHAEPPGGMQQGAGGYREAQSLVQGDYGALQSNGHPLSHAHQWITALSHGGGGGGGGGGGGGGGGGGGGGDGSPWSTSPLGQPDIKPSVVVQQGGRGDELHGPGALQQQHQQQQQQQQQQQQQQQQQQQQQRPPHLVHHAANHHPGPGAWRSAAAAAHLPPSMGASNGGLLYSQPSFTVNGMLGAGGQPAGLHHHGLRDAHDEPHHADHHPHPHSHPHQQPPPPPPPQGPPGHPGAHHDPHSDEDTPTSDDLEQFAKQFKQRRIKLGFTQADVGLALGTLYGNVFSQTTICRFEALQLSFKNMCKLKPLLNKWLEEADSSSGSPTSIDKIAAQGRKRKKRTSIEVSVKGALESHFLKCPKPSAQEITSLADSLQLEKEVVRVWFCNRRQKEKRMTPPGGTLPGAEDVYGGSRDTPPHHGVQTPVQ
test: cell-based
protocolConditions: read-out: % BRN2 Inhibition (10 μM), 10 μM compound, 24 hours, 42D^ENZR cells stably expressing BRN2-luciferase reporter; negative = activation
Please use Criterion met whenever inhibition at 10 µM is not below 40%, and Criterion not met whenever it is.

Is reported inhibition at 10 µM greater than or equal to 40% here: c1coc(-c2nc(-c3coc4ccccc34)cs2)c1
Criterion met

Hello, I need to know if N#Cc1ccc2cc(-c3csc(-c4ccco4)n3)oc2c1 has measured inhibition at 10 µM not below 40%. Thanks!
Criterion met

Form field: inhibition at 10 µM at least 40%? Entry: Cc1c(-c2csc(-c3ccccn3)n2)oc2ccccc12
Criterion met

Entry c1ccc(-n2cc(-c3nc4ccccc4o3)cn2)cc1 : is its inhibition at 10 µM no less than 40%?
Criterion met

Item Clc1ccc2nc(-c3ccc(-c4ccccc4)o3)[nH]c2c1 with inhibition at 10 µM of 40% or above?
Criterion met

Given the entry Clc1ccc2cc(-c3csc(-c4ccc[nH]4)n3)oc2c1 , answer whether its inhibition at 10 µM meets or surpasses 40%.
Criterion met

Hi, just wondering whether Clc1ccc2cc(-c3csc(N4CC5CC4CO5)n3)oc2c1 (stereo not drawn) shows inhibition at 10 µM of 40% or higher.
Criterion met

Decide: inhibition at 10 µM of Clc1cc2cc(-c3csc(-c4ccc[nH]4)n3)oc2cc1Cl >= 40%?
Criterion not met

Answer whether inhibition at 10 µM of FC(F)(F)c1ccc2cc(-c3csc(-c4ccco4)n3)oc2c1 is greater than or equal to 40%.
Criterion met

Given the entry Cn1c(-c2ccc(-c3cncnc3)o2)nc2ccccc21 , answer whether its inhibition at 10 µM meets or surpasses 40%.
Criterion not met

Is inhibition at 10 µM at least 40%? Consider CCn1c(-c2ccc(-c3ccccc3)o2)nc2ccccc21
Criterion met

Has CN1CCC(c2ccc(-c3nc4ccccc4n3C)o2)CC1 a recorded inhibition at 10 µM greater than or equal to 40%?
Criterion not met

Attribution: patent US20220106304A1
